experiment-summary: protein stability index of a GFP-peptide fusion (yeast GPS) (PSI 1-4); higher = more stable; sorted into four equal gates, so the index is relative within each strain
run-conditions: pdr5∆
Label scheme for protein stability index: lower than 3 is NO, 3 and above is YES.

Some solved entries appear below for comparison.
LDNLKLKELRIDNSPQA [GRR1] = NO
GQRTAYHSKRDASTPLR [RPB2] = YES
GLVCADTFRAGAFDQLK [SRP54] = YES
NQLVAKLLLLRINSTDE [SRB8] = NO
KRYRLKESQLPRIQRAD [RPB5] = YES

Attention now shifts to the item below.
Inquiry: # bool: protein stability index of VKQVLLSVEIGVLTDIS [NUT1] >= 3
Reply text: NO

----------
experiment-summary: protein stability index of a GFP-peptide fusion (yeast GPS) (PSI 1-4); higher = more stable; sorted into four equal gates, so the index is relative within each strain
run-conditions: pdr5∆
measure: protein stability index

Answered cases to consult:
YVRKHDPLNSNIFSEAV [PRP28] = 2.76
TELRQLFQENDDDDDDD [DSN1] = 2.36
EVYTLVDSQGLPYNWDA [ARP7] = 3.56
RNESLKNNSSIRNVIMS [SRB8] = 2.11
PMTVKLVQLPKSAMDTF [POP3] = 2.52

Inquiry: Would you kindly share the measured protein stability index for VQVGPMKVFVTKHLMPQ [RPB7] ?
Reply text: 2.37

Inquiry: Here is the next sequence: YRATSLDPSLRAPIYHS [YML031W/NDC1]
Reply text: 2.68

Inquiry: Here is the next sequence: GKPVSLPLLYNFNPDNG [FAS1]
Reply text: 3.27

Inquiry: Here is the next sequence: DKQGWTPLFHALAEGHG [NAS6]
Reply text: 2.34

Inquiry: Here is the next sequence: RNARAARAAKIAPRPLD [RPL13B]
Reply text: 3.11

Inquiry: Here is the next sequence: EKIFHYGHVFLGITGLA [PUP3]
Reply text: 1.34

Inquiry: Here is the next sequence: FQKAQGSYAGHRKHIAV [YCG1]
Reply text: 2.11

Inquiry: Here is the next sequence: LPLTEHKSPNLSLMLES [SRB4]
Reply text: 3.18

Inquiry: Here is the next sequence: LIEKLQGFSKDTFELIK [YDL116W/NUP84]
Reply text: 3.22

----------
Reported protein stability index values follow for various sequences
experiment-summary: protein stability index of a GFP-peptide fusion (yeast GPS) (PSI 1-4); higher = more stable; sorted into four equal gates, so the index is relative within each strain
run-conditions: doa10∆
API note: the answer field is a bare number with no unit suffix.

LYAVSTFENTNNTEKND [SIR4] = 2.37
GDYNNTVYSSEQYIQEL [SMC3] = 2.9
QPGYADLEHKEDCVEEF [QCR6] = 2.42
IDEKSQFVETIVSKSIE [RPN2] = 1.68
LKKELKLLAKELEEQES [SMC2] = 2.81

Inquiry: Would you kindly share the measured protein stability index for KPKMLPIPSKPTLFDLA [SRP68] ?
Reply text: 2.48

Inquiry: Here is the next sequence: NVIDTQRKNGVTNSPLF [ECM29]
Reply text: 3

Inquiry: Here is the next sequence: SLISTRNDSTVNDSVIS [BRN1]
Reply text: 2.6

Inquiry: Here is the next sequence: DFTLIPRMASVFENYVK [CDC53]
Reply text: 3.15

Inquiry: Here is the next sequence: NNNEDNENNNNSSEKNN [MED2]
Reply text: 3.11

Entry source: the supplement of paper PMC9732359
